// data source = the supplement of paper PMC10567573

B1: ZNF263 (parent)
chain: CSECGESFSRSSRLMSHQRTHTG

Variants of: B1
Assay: protein stability index of a GFP-peptide fusion (GPS, HEK-293T) (PSI 1-6); higher = more stable;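 note: lentivirally expressed fusions sorted by FACS into six bins by GFP to DsRed ratio, PSI derived from sequencing read proportions per bin multiplied by bin number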
Settings: c terminus: native
Class true: protein stability index at least 3. Class false: protein stability index below 3.

A selection of reference data follows.
1. C1L : false
2. S9D : true
3. S7L : true

*Q* Identify whether the reported protein stability index of the following variant is 3 or greater: `E3N`
*A* false

*Q* Quick check: does `E6R` have protein stability index greater than or equal to 3?
*A* true

*Q* Quick check: does `Q18A` have protein stability index greater than or equal to 3?
*A* false

*Q* Determine whether this variant has protein stability index no lower than 3: `E6H`
*A* false

*Q* hey, is protein stability index for this one >= 3? `S12R`
*A* false
